Target: human vasopressin V1a receptor subtype (Homo sapiens)
Construct: host or cells: CHO cells, stably transfected (pZeoSV vector for the Thibonnier cells)
Sequence (P37288 whole entry): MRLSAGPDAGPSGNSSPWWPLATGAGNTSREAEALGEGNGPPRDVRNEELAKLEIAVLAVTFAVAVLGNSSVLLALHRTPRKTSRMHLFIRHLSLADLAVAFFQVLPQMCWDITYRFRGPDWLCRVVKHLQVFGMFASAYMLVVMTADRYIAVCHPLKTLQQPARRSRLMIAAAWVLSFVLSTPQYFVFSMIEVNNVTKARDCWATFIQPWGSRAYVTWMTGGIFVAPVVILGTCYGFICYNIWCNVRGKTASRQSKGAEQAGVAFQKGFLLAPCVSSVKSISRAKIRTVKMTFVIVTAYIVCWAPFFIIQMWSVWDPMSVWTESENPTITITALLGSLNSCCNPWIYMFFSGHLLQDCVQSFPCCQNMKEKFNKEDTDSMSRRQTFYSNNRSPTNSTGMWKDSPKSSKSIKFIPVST
Assay: Vasopressin binding in CHO cell membranes expressing human vasopressin V1a subtype receptors
Conditions: 100 nM, [3H]Manning ligand
Measured endpoint: V1a % inhibition @ 100 nM (%)
Give the quantity in %, number only.

> print(dat)
                                   compound                             target.entity          measured.endpoint  unit.symbol  measured.number
1  Cc1cc(C(=O)N2Cc3ccc(C(=O)NCCc4ccccn4)n3Cc3ccccc32)ccc1C1=CCCCC1 [Example 7]  human vasopressin V1a receptor subtype (Homo sapiens)  V1a % inhibition @ 100 nM            %               13
2  Cc1cc(C(=O)N2Cc3ccc(C(=O)NCc4ccncc4)n3Cc3ccccc32)ccc1C1=CCCCC1 [Example 10]  human vasopressin V1a receptor subtype (Homo sapiens)  V1a % inhibition @ 100 nM            %               13
3  CC1=C(c2ccc(C(=O)N3Cc4ccc(C(=O)N(C)Cc5cccnc5)n4Cc4ccccc43)cc2C)CCC[C@H]1O.O=C(O)C(O)C(O)C(=O)O [Example 4]  human vasopressin V1a receptor subtype (Homo sapiens)  V1a % inhibition @ 100 nM            %               61

Ask: Please give the documented V1a % inhibition @ 100 nM of Cc1cc(C(=O)N2Cc3ccc(C(=O)NCc4cccnc4)n3Cc3ccccc32)ccc1C1=CCCCC1 [Example 6]
Result: 6

====

Molecular target: human oxytocin receptor (Homo sapiens)
Construct: host or cells: CHO cells, stably transfected (pcDNA3.1 vector)
Sequence (P30559 whole entry): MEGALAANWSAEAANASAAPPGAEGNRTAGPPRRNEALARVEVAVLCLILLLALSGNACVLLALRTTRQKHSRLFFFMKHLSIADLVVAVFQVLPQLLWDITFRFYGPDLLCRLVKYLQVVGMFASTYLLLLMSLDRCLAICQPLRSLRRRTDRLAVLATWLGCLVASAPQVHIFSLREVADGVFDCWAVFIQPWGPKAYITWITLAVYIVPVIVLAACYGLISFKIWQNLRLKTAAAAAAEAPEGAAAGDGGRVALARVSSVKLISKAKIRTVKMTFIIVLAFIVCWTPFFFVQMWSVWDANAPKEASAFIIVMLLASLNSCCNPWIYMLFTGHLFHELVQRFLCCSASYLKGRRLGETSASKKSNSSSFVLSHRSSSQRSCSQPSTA
Assay: Oxytocin binding in CHO cell membranes expressing human oxytocin receptors
Conditions: 100 nM, [3H]oxytocin
Measured endpoint: OT % inhibition @ 100 nM (%)
Write down the numeric answer in % and omit the unit.

Here are 8 compounds together with their reported answers.
> print(dat)
                               query.smiles  unit.symbol  measured.number
1  Cc1cc(C(=O)N2Cc3ccc(C(=O)NCc4ccncc4)n3Cc3ccccc32)ccc1C1=CCCCC1            %               45
2  Cc1cc(C(=O)N2Cc3ccc(C(=O)N4CCN(c5ccccn5)CC4)n3Cc3ccccc32)ccc1C1=CCCCC1            %               37
3  CC1=C(c2ccc(C(=O)N3Cc4ccc(C(=O)N(C)Cc5cccnc5)n4Cc4ccccc43)cc2C)CCC[C@H]1O.O=C(O)C(O)C(O)C(=O)O            %               99
4  CC1=C(c2ccc(C(=O)N3Cc4ccc(C(=O)N(C)Cc5cccnc5)n4Cc4ccccc43)cc2C)CCC[C@H]1O            %               96
5  Cc1cc(C(=O)N2Cc3ccc(C(=O)NCCc4ccccn4)n3Cc3ccccc32)ccc1C1=CCCCC1            %               42
6  Cc1cc(C(=O)N2Cc3ccc(C(=O)N(C)CCc4ccccn4)n3Cc3ccccc32)ccc1C1=CCCCC1            %               84
7  Cc1cc(C(=O)N2Cc3ccc(C(=O)NCc4cccnc4)n3Cc3ccccc32)ccc1C1=CCCCC1            %               31
8  Cc1cc(C(=O)N2Cc3ccc(C(=O)N(C)Cc4cccnc4)n3Cc3ccccc32)ccc1C1=CCCCC1            %               87

Ask: Supply measured OT % inhibition @ 100 nM of `Cc1cc(C(=O)N2Cc3ccc(C(=O)N4CCN(c5ccncc5)CC4)n3Cc3ccccc32)ccc1C1=CCCCC1` in your reply.
Result: 98

Ask: Quick one: give measured OT % inhibition @ 100 nM for `Cc1cc(C(=O)N2Cc3ccc(C(=O)NCc4ccccn4)n3Cc3ccccc32)ccc1C1=CCCCC1`
Result: 34

Ask: Look up and state reported OT % inhibition @ 100 nM for `Cc1cc(C(=O)N2Cc3ccc(C(=O)N(C)CCc4ccncc4)n3Cc3ccccc32)ccc1C1=CCCCC1`
Result: 95
